Values compiled from paper PMC12771125.

EC50: recorded values
test system: HepG2 cells; test: HepG2 cytotoxicity assay (resazurin, 72 h); type: cell-based, human; conditions: Homo sapiens, HepG2, 72 h; read-out: HepG2 pEC50 (converted)
Give just the number in µM; leave the unit off.

| compound | units symbol | endpoint value |
| --- | --- | --- |
| O=C(Nc1nc2c(Cl)c(Cl)ccc2s1)C1CC1 [Compound 4d] | µM | 50.1 |
| Clc1ccc2c(Nc3ccc4[nH]ccc4c3)ccnc2c1 [Compound 5k] | µM | 12.6 |
| c1ccc2c(N3CCCCC3)cc(N3CCCC3)nc2c1 [Compound 7f] | µM | 50.1 |
| CC(C)C(=O)Nc1nc2c(Cl)c(Cl)ccc2s1 [Compound 4c] | µM | 50.1 |

Asked: For Oc1ccc(Nc2ccnc3cc(Cl)ccc23)cc1CN1CCNCC1 [Compound 5c] , what is its reported EC50?
Given back: 12.6
